# Assay system: HEK cells stably transfected with tetracycline inducible hNR1 and hNR2A (Homo sapiens, UniProt Q05586+Q12879)
# Construct: expressed in transfected cells; host or cells: HEK cells, stably transfected, tetracycline/doxycycline inducible
# Sequence (Q12879 23-1464, other chains not shown): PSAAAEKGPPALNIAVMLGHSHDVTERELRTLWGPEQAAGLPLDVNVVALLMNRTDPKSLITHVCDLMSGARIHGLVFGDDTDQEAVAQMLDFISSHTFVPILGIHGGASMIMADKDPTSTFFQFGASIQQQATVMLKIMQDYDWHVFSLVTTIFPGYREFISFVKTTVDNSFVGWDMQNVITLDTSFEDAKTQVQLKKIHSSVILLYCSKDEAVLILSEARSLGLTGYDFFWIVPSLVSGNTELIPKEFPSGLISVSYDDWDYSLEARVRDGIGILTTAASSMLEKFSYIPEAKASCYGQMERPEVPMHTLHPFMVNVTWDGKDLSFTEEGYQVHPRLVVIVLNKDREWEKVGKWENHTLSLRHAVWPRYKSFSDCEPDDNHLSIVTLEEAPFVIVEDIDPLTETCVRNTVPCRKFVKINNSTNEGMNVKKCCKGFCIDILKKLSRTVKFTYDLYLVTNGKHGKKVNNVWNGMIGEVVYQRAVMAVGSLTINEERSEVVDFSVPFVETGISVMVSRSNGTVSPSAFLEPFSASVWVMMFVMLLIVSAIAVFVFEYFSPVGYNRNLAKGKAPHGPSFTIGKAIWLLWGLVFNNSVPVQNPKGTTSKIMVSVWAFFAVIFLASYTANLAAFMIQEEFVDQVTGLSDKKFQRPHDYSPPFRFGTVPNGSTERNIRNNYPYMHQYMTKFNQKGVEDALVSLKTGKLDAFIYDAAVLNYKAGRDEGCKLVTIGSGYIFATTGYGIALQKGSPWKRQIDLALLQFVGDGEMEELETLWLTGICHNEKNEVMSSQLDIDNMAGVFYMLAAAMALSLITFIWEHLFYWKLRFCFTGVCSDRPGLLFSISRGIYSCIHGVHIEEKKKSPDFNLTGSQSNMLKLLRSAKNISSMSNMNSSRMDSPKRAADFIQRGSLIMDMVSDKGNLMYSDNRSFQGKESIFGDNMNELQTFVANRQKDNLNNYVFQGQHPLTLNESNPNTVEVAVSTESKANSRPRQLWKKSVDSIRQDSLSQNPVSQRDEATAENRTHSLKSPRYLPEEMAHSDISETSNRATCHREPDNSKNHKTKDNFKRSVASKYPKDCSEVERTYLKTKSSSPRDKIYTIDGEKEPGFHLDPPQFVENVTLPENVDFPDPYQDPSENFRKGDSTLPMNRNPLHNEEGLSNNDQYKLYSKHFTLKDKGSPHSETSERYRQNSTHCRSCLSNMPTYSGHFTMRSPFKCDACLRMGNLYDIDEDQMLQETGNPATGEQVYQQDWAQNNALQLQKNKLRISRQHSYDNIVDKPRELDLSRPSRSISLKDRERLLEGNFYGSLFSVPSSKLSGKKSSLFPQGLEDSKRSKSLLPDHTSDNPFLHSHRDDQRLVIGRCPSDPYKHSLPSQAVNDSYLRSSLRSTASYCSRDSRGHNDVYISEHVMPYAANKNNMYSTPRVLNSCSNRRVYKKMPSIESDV
# Test description: Assay 1: Cell-Based Assay, cytosolic calcium response to positive allosteric modulators (with 30 μM glycine and 300 nM L-glutamate, EC30)
# Condition details: Table 2; responses scaled relative to 100 μM L-glutamate maximal response (100%) and 0 μM L-glutamate (0%)
Readout kind: Max % (%)

Compound	Readout kind	Output unit	Number
CCN(Cc1cc(=O)n2c(-c3nccs3)c(C)sc2n1)c1ccc(F)cc1	Max %	%	156
CCNC(=O)c1c(C)sc2nc(Cc3cccc4c3cnn4C)cc(=O)n12	Max %	%	66.5

(A) CNC(=O)c1c(C)sc2nc(Cc3ccc(Cl)cc3Cl)cc(=O)n12
(B) CCNC(=O)c1csc2nc(Cn3nc(C(F)(F)F)cc3C3CC3)cc(=O)n12
Of A and B , whose reported Max % is the larger number? Please identify the chosen entry by its label. B

(A) Cc1sc2nc(CN(CC(F)(F)F)c3ccc(F)cc3)cc(=O)n2c1-c1cncnc1
(B) CNC(=O)c1c(C)sc2nc(Cc3cccc(C(F)(F)F)c3F)c(F)c(=O)n12
Kindly identify the item with the lower Max % figure among these two: A and B Please identify the chosen entry by its label. B
(B: 98.2%, A: 177%)

Reference source for all entries: patent US9988400B2
